Cited source: the Immune Epitope Database (IEDB)

biological target: HLA-A*01:01; experiment: IEDB peptide-MHC binding, purified MHC/direct/fluorescence; filed as Kd, often an IC50 or EC50 that approximates it; bounds were set here for any values at or beyond the usual limits of such assays; conditions: source organism: Toxoplasma gondii
PROPERTY: Kd

*Q* So what does the record say about Kd for AYMDRKSFK ?
*A* ≥ 20 µM

###

molecular target: HLA-A*02:19; experiment: IEDB peptide-MHC binding, purified MHC/competitive/fluorescence; filed as Kd, often an IC50 or EC50 that approximates it; bounds were set here for any values at or beyond the usual limits of such assays; settings: source organism: Campylobacter jejuni subsp. jejuni NCTC 11168 = ATCC 700819
PROPERTY: pKd
pKd is a log-scale quantity: -log10 of the concentration expressed in molar.

*Q* So what does the record say about pKd for AVGFFPTGV ?
*A* 6.99
